Source listed as PubChem BioAssay.

assay: HepG2 liver cancer cell viability effects, profiling panel, resazurin fluorescence, 24 h, PK04 Diversity Set (AID 1172); details: higher = more signal; note: test concentration not given here
Exercise: state measured z-score for each of the compounds provided.
Just the number, please, no unit attached.

Input: Name the reported z-score value associated with the compound C=CCC(OC(C)=O)[C@@H]1[C@@H](N(Cc2cccc3ccccc23)C(=O)Cc2ccc(OC)cc2)c2cc(OCCCO)ccc2N1C(=O)c1ccc2ccccc2n1 (some centres not stated)
Output: 0.602

Input: Name the reported z-score value associated with the compound CC(C)C[C@@H]1NC(=O)[C@@H]2C[C@H](C(=O)NCCCCN(C)C)[C@H](c3cccc(OCCO)c3)N2C1=O
Output: 0.0064

Input: Name the reported z-score value associated with the compound Cc1ccc(S[C@]2(C(=O)NCC(F)(F)F)CC(=O)N(Cc3ccccc3C(F)(F)F)[C@@H]2c2ccc(CO)cc2I)cc1
Output: 0.719

Input: Name the reported z-score value associated with the compound O=C1O[C@@H](c2ccccc2)[C@@H](c2ccccc2)N2[C@@H](c3ccc(OCCO)cc3)[C@]3(C(=O)Nc4ccccc43)[C@@H](C(=O)O)[C@H]12
Output: -0.273

Input: Name the reported z-score value associated with the compound C=CCC(OC(C)=O)[C@@H]1[C@@H](N(Cc2ccc(-c3cccc(C(F)(F)F)c3)o2)C(=O)c2ccc(-c3ccccc3)cc2)c2cc(OCCCO)ccc2N1C(=O)c1ccc2ccccc2n1 (some centres not stated)
Output: -0.0845

Input: Name the reported z-score value associated with the compound COCCCNC(=O)[C@]1(CCS(=O)(=O)c2ccccc2)N=C(c2ccc(OCCCO)cc2)O[C@@H]1c1ccccc1N=[N+]=[N-]
Output: 0.129

Input: Name the reported z-score value associated with the compound Cc1cc(C)cc(N2C(=O)CSC2c2cccc([N+](=O)[O-])c2)c1 (configuration not stated)
Output: -0.654
